test: gradient 5% acetonitrile 3 min, to 50% in 2 min, to 85% in 15 min, held 3 min, 100 µL/min; conditions: column: Zorbax Extend-C18 2.1 x 50 mm; eluents: water / acetonitrile, 0.1% formic acid
measurement.kind: RP-LC retention time
// unit must come after the numeric part

Sample records with RP-LC retention time:
> print(dat)
                                   compound      measurement.kind  endpoint.result
1  Cc1ccc(S(=O)(=O)N2CCC(c3nc(C(=O)N4CCCC4)c(C)o3)CC2)cc1C  RP-LC retention time            747 s
2  Cc1ncoc1C(=O)N1CCC(C2CCN(S(C)(=O)=O)CC2)C1 (stereo not given)  RP-LC retention time            642 s
3  CCC(CC)C(=O)Nc1cccc(C(=O)Nc2nc(-c3ccccc3)cs2)c1  RP-LC retention time           1070 s
4  O=C(Cn1ccc2c(SCc3ccc(F)cc3)nccc21)N1CCN(c2ccccn2)CC1  RP-LC retention time            595 s
5  COCCN1CCC(N2CCCN(C(=O)Cc3c[nH]c4ccccc34)CC2)C1=O (stereo not given)  RP-LC retention time            576 s
6  CCc1cc(C(=O)NCc2ccc(C)o2)nc2cc(-c3ccco3)nn12  RP-LC retention time            767 s
7  Cc1ccc(C)c(NS(=O)(=O)c2ccc(-c3nnc(C4CCC4)o3)o2)c1  RP-LC retention time            960 s
8  CSc1cccc(NC(=O)c2cn(C)nc2S(=O)(=O)N2CCSCC2)c1  RP-LC retention time            973 s

Query :: Query (compound): CCOC(=O)N1CCN(c2ncc3c(n2)CC(C)CC3=O)CC1 (stereo not given) ; field requested: RP-LC retention time
Result :: 842 s

Query :: Again, but for COc1ccc(C2CC(=O)Nc3c(C(=O)O)cn(-c4ccc(F)cc4)c32)cc1OC (stereo not given)
Result :: 734 s

Query :: Again, but for CCN(CCN(C)C)C(=O)CN1C(=O)C(Oc2ccc(F)cc2)C12CCCCC2 (stereo not given)
Result :: 724 s

Query :: Again, but for `CCN(CC)CCNC(=O)c1nc(-c2oc3ccc(C)cc3c2C)no1`
Result :: 695 s

Query :: Again, but for `COc1ccc(-c2nnc(SCc3cccc(C(F)(F)F)c3)o2)cc1OC`
Result :: 992 s

Query :: Again, but for `CCOC(=O)c1cnc(N2CCN(c3ccc(OC)cc3)CC2)c2ccccc12`
Result :: 1080 s

Query :: Again, but for `Cc1cccc(-n2ccn(CC#N)c(=O)c2=O)c1C`
Result :: 639 s

Query :: Again, but for `COc1cc(OC)cc(-c2nnc(Cc3nc(-c4ccccc4F)no3)o2)c1`
Result :: 907 s

Query :: Again, but for `CCNC(=O)c1cc(N2CCOCC2)nc2ccccc12`
Result :: 563 s

Query :: Again, but for `Cc1ccc(-c2nc(-c3ccc(S(=O)(=O)N4CCC(C(=O)N5CCCC5)CC4)cc3)no2)cc1`
Result :: 1090 s

Query :: Again, but for `CCCc1nc(-c2ccnc(N3CCOCC3)c2)no1`
Result :: 749 s

Query :: Again, but for Cc1ccc(-c2nnc(N3CCC(C(=O)NC(C)c4ccccc4)CC3)o2)cc1 (stereo not given)
Result :: 886 s
